Below, each of the compounds is paired with its reported Fik Kinase %Inhibition value.
# TESTED TARGET: FLK-1 receptor (Mus musculus, UniProt P35918)
# Construct: expressed in transfected cells; host or cells: NIH3T3 C7#3
# Sequence (P35918 20-1345): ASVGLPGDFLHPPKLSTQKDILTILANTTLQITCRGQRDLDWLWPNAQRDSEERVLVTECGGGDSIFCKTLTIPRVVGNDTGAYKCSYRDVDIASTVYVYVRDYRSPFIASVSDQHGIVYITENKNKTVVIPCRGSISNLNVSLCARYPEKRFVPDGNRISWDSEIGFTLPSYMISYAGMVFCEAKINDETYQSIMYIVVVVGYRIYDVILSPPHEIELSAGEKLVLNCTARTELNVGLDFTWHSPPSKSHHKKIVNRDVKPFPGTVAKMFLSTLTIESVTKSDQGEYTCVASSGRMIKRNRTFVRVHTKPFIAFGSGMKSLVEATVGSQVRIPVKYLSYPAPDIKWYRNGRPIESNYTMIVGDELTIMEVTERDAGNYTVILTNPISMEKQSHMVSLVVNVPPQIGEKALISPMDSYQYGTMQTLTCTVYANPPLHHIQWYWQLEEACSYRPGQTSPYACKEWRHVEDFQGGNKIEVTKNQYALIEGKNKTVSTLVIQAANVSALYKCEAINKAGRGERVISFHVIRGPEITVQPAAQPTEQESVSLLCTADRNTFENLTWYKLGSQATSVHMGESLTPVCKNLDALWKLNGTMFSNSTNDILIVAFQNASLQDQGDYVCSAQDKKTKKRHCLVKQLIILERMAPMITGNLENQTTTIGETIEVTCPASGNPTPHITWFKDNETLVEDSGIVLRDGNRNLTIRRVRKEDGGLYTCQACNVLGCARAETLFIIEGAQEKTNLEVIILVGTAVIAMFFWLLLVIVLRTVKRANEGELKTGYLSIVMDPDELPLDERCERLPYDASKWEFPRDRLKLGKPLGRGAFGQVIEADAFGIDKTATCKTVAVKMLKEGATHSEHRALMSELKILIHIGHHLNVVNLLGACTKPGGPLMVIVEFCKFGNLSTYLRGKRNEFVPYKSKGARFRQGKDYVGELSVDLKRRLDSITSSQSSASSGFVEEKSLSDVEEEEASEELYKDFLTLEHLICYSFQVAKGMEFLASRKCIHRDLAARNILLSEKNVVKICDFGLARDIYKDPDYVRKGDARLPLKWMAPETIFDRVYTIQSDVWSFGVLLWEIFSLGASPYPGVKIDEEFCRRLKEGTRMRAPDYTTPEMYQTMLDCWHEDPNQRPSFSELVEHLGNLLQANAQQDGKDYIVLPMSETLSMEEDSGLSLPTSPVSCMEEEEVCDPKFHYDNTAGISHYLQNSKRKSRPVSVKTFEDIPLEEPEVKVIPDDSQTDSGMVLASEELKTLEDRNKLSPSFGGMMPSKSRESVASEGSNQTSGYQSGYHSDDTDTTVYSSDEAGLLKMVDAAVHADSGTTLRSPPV
# EXPERIMENTAL PROTOCOL: FLK-1 ELISA (kinase activity of the FLK-1 receptor in FLK-1/NIH3T3 cells, VEGF stimulated)
# Format: cell-based

COMPOUND	SCALE UNIT	Fik Kinase %Inhibition
O=C1Nc2ccc(S(=O)(=O)N3CCOCC3)cc2C1=Cc1ccc(O)c(Br)c1	%	-3.7
COc1cccc(C=C2C(=O)Nc3ccc(S(=O)(=O)Nc4ccc(C(F)(F)F)cc4)cc32)c1O	%	8.7
O=C1Nc2ccc(S(=O)(=O)Nc3ccc(C(F)(F)F)cc3)cc2C1=Cc1cc(Br)ccc1O	%	13.4
O=C1Nc2ccc(I)cc2C1=Cc1cccc(F)c1O	%	-0.5
O=C1Nc2c(Br)cc(Br)cc2C1=CC1C=CCCC1 (stereo not drawn)	%	4.9
CCOc1ccc(C=C2C(=O)Nc3ccc(S(=O)(=O)NC)cc32)cc1OC	%	9.7
O=C1Nc2c(Br)cc(Br)cc2C1=Cc1coc2ccc([N+](=O)[O-])cc2c1=O	%	-4.3
CCOC(=O)c1[nH]c(C=C2C(=O)Nc3ccc(S(=O)(=O)Nc4ccc(C(F)(F)F)cc4)cc32)c(C(=O)OC)c1C	%	-5.5
Cc1cc(C=C2C(=O)Nc3ccc(I)cc32)ccc1O	%	31.8
O=C1Nc2ccc(S(=O)(=O)Nc3ccc(C(F)(F)F)cc3)cc2C1=Cc1c(O)cc(O)cc1O	%	10.7
COc1cc(C)cc(O)c1C=C1C(=O)Nc2ccc(S(=O)(=O)N3CCOCC3)cc21	%	-1.0
Cc1cc(C)c(C=C2C(=O)Nc3ccc(Br)c(C)c32)[nH]1	%	55.8
COc1cc(O)ccc1C=C1C(=O)Nc2c(Br)cc(Br)cc21	%	17.7
O=C1Nc2c(Br)cc(Br)cc2C1=Cc1c[nH]c(=O)[nH]c1=O	%	-13.8
CNS(=O)(=O)c1ccc2c(c1)C(=Cc1cc(C)c(C)o1)C(=O)N2	%	7.7
COc1ccc(O)c(C=C2C(=O)Nc3ccc(CCCl)cc32)c1	%	-36.6
O=C1Nc2ccc(I)cc2C1=Cc1ccc(F)cc1F	%	13.9
Cc1c(O)ccc(C=C2C(=O)Nc3ccc(CCCl)cc32)c1O	%	-12.8
